# ASSAY EXPLANATION: Pharmacokinetics of obeticholic acid taken orally, in a monocomposition or with UDCA
# Type: in vivo
# EXPERIMENTAL PARAMETERS: in vivo, po, read-out: Bioavailability
VALUE TYPE: bioavailability

For reference, reported bioavailability for CC[C@H]1[C@@H](O)[C@@H]2[C@H](CC[C@]3(C)[C@@H]([C@H](C)CCC(=O)O)CC[C@@H]23)[C@@]2(C)CC[C@@H](O)C[C@@H]12 [OCA, obeticholic acid] stands at 89%

###

# ASSAY EXPLANATION: Pharmacokinetics of obeticholic acid taken orally, in a monocomposition or with UDCA
# Assay type: in vivo
# EXPERIMENTAL PARAMETERS: in vivo, po, read-out: Cmax
VALUE TYPE: Cmax (ng/mL)
Write the number in ng/mL without appending the unit.

For reference, reported Cmax for "CC[C@H]1[C@@H](O)[C@@H]2[C@H](CC[C@]3(C)[C@@H]([C@H](C)CCC(=O)O)CC[C@@H]23)[C@@]2(C)CC[C@@H](O)C[C@@H]12" stands at 16.7

###

# ASSAY EXPLANATION: Pharmacokinetics of obeticholic acid taken orally, in a monocomposition or with UDCA
# Assay type: in vivo
# EXPERIMENTAL PARAMETERS: in vivo, po
# Protocol: A study of the pharmacokinetics of obeticholic acid in a monocom position and as part of a composition with ursodeoxycholic acid when taken orally was conducted.
VALUE TYPE: AUC(0-t)

For reference, reported AUC(0-t) for "CC[C@H]1[C@@H](O)[C@@H]2[C@H](CC[C@]3(C)[C@@H]([C@H](C)CCC(=O)O)CC[C@@H]23)[C@@]2(C)CC[C@@H](O)C[C@@H]12" stands at 34.8 ng·h/mL
